// data source = patent US20220323443A1

test system: SW620 cancer cells; assay: In vitro combination study with Compound 1, Cell Titer-Glo (ATP) cell viability, 72 h; type: cell-based; conditions: Table 5 drug combined with Compound 1; 72 h;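 also: Ten-by-ten dose matrices of both drugs in 384-well plates, luminescent ATP read-out, synergy evaluated against single-agent and DMSO vehicle controls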
MEASURED_METRIC: Call, anti-proliferative effect of combination with Compound 1, SW620

CO/C1=C\C(C)=C\[C@@H](C)[C@@H](O)[C@@H](C)C/C(C)=C/C=C/[C@H](OC)[C@@H]([C@@H](C)[C@@H](O)[C@H](C)[C@@]2(O)C[C@@H](O)[C@H](C)[C@@H](C(C)C)O2)OC1=O    Additivity (0.7 to 1.3)
Nc1cc(C(F)(F)F)c(-c2cc(N3CCOCC3)nc(N3CCOCC3)n2)cn1    Additivity (0.7 to 1.3)
CO[C@H]1/C=C\C=C(/C)C(=O)NC2=CC(=O)C(NCCN(C)C)=C(C[C@@H](C)C[C@H](OC)[C@H](O)[C@@H](C)/C=C(\C)[C@@H]1OC(N)=O)C2=O    Additivity (0.7 to 1.3)
